- Test system: HIV-1 strain IIIB (lymphocytotropic strain)
- ASSAY_TEXT: Single-round infection assay, cell-free X4 virus (lymphocytotropic strain)
- Type: cell-based
- CONDITION_NOTES: Human immunodeficiency virus 1, IIIB, Table 3, viral entry inhibition assay, read-out: (X4) EC50
ASSAY_ENDPOINT: pEC50
FYI, pEC50 means -log10 of a concentration in mol per litre.

MOLECULE | SUBJECT_OF_TEST | pEC50
Cc1cn([C@H]2C[C@H](N=[N+]=[N-])[C@@H](CO)O2)c(=O)[nH]c1=O [AZT, 3′-azido-2′,3′-dideoxythymidine, reference compound] | HIV-1 strain IIIB (lymphocytotropic strain) | 4.96

Now let's try a different one.
Query: Find the measured pEC50 of Cc1cn([C@H]2C[C@H](F)[C@@H](CO)O2)c(=O)[nH]c1=O [FLT, 3′-fluoro-2′,3′-dideoxythymidine] and report it.
Response: 6.10

----------
- Test system: HIV-1 strain BaL (monocytotropic strain)
- ASSAY_TEXT: Single-round infection assay, cell-free R5 virus (monocytotropic strain)
- Type: cell-based
- CONDITION_NOTES: Human immunodeficiency virus 1, BAL, Table 2, single-round infection assay, read-out: (R5) EC50
ASSAY_ENDPOINT: EC50 (µM)
Write the value in µM as a bare number.

COMPOUND | ASSAY_ENDPOINT | MEASUREMENT
Cc1cn([C@H]2C[C@H](N=[N+]=[N-])[C@@H](CO)O2)c(=O)[nH]c1=O [AZT, 3′-azido-2′,3′-dideoxythymidine, reference compound] | EC50 | 14.2

Now let's try a different one.
Query: Find the measured EC50 of Cc1cn([C@H]2C[C@H](F)[C@@H](CO)O2)c(=O)[nH]c1=O and report it.
Response: 0.4

----------
- System: HIV-1 strain IIIB (lymphocytotropic strain)
- ASSAY_TEXT: Single-round infection assay, cell-free X4 virus (lymphocytotropic strain)
- Type: cell-based
- CONDITION_NOTES: Human immunodeficiency virus 1, IIIB, read-out: (X4) EC50, Table 2, single-round infection assay
ASSAY_ENDPOINT: log10 of EC50 (log10 of the value in µM)
Please be aware that the numbers have been log10-transformed from EC50 in µM.

Recorded results for 4 compounds are shown here.
COMPOUND | ASSAY_ENDPOINT | MEASUREMENT
Cc1cn([C@H]2C[C@H](F)[C@@H](COC(=O)CCCCCCCCCCCBr)O2)c(=O)[nH]c1=O | log10 of EC50 | 0.26
CCSCCCCCCCCCCCC(=O)OC[C@H]1O[C@@H](n2cc(C)c(=O)[nH]c2=O)C[C@@H]1N=[N+]=[N-] | log10 of EC50 | 0.89
CCCCCCCCCCCCCCOCC1OC(n2cc(C)c(=O)[nH]c2=O)CC1N=[N+]=[N-] (stereo not shown) | log10 of EC50 | 2.10
CCCCCSCCCCCCCC(=O)OC[C@H]1O[C@@H](n2cc(C)c(=O)[nH]c2=O)C[C@@H]1N=[N+]=[N-] | log10 of EC50 | 0.97

Now let's try a different one.
Query: Find the measured log10 of EC50 of CCCCCCCCCCOCCC(=O)OC[C@H]1O[C@@H](n2cc(C)c(=O)[nH]c2=O)C[C@@H]1N=[N+]=[N-] and report it.
Response: 0.83

----------
- ASSAY_TEXT: Solubility (shake-flask, UV detection; organic solvents)
- Format: physicochemical
- CONDITION_NOTES: aqueous solution adjusted to pH 2.3, pH 2.3, aqueous buffer, thermodynamic from solid, shake-flask, UV detection; read-out: aqueous solubility (upper limit)
ASSAY_ENDPOINT: solubility

Query: Find the measured solubility of Cc1cn([C@H]2C[C@H](F)[C@@H](COC(=O)CCCCCCCCCCCN=[N+]=[N-])O2)c(=O)[nH]c1=O and report it.
Response: ≤ 0.51 µM
